# Lookup of reported IC50 keyed by entry
SYSTEM_UNDER_TEST: CCR8 (Homo sapiens)
TEST_DESCRIPTION: Tango assay (Tango-CCR8-Gal4-CHO-K1 cells, CCL1-stimulated, ONE-Glo luminescence)
CONDITION_SET: Tango Assay IC50, Inhibition of CCR8 Tango cell in vitro
Structures can show the parent of a compound that is named as a salt.
State just the number; it will be interpreted in nM.

[[record]]
compound = "Cc1ccccc1C(=O)Nc1ccc(S(=O)(=O)NCc2cccc(N(C)C)c2)c2ccccc12"
system_under_test = "CCR8 (Homo sapiens)"
observed_result = 1040


[in] For Cc1ccccc1C(=O)Nc1ccc(S(=O)(=O)N[C@H](C)C2CCNCC2)cc1Cl [Compound 165A, hydrochloride] , write its IC50.
[out] 12

* * *

SYSTEM_UNDER_TEST: CCR8 (Homo sapiens)
TEST_DESCRIPTION: Tango assay (Tango-CCR8-Gal4-CHO-K1 cells, CCL1-stimulated, ONE-Glo luminescence)
CONDITION_SET: Tango Assay IC50, Inhibition of CCR8 Tango cell in vitro
Where a name gives a salt, the structure may show the parent alone.
EXPERIMENTAL_READOUT: IC50 (nM)

Some compounds with known IC50 results, for comparison:
[[record]]
compound = "Cc1cc(S(=O)(=O)N[C@H](C)C2CCN(C)CC2)c(F)cc1NC(=O)c1ccccc1C [Compound 262]"
observed_result = 5

[[record]]
compound = "COC(=O)CN1CCCCC1C(C)NS(=O)(=O)c1ccc(NC(=O)c2ccccc2C)c2ccccc12 (single isomer, unassigned) [Compound 70A]"
observed_result = 116

[[record]]
compound = "Cc1cc(S(=O)(=O)N[C@H](C)C2CCN(C)CC2)ccc1NC(=O)C1CCCCCC1 [Compound 274]"
observed_result = 13

[[record]]
compound = "COC(=O)[C@H](NS(=O)(=O)c1ccc(NC(=O)c2ccccc2C)c2ccccc12)C1CCCCC1 [Compound 50]"
observed_result = 12

[[record]]
compound = "CCCC(=O)N1CCC(NS(=O)(=O)c2ccc(-c3nc4ccccc4[nH]3)cc2)CC1 [Compound 106]"
observed_result = 1140


I. Cc1ccccc1C(=O)Nc1ncc(S(=O)(=O)N[C@H](C)C2CCNCC2)cc1C [Compound 199A, hydrochloride]
II. Cc1ccccc1C(=O)Nc1ccc(S(=O)(=O)N[C@H](C)C2CCNCC2)cc1C#N [Compound 195]
[in] // compare measured IC50 between I and II ; output the lower one Write down the label attached to your selection.
[out] II

I. COc1cccc(C(C)NS(=O)(=O)c2ccc(NC(=O)c3ccccc3C)c3ccccc23)c1 (stereo not drawn) [Compound 73]
II. Cc1cc(S(=O)(=O)N[C@H](C)C2CCN(C(=O)OC(C)(C)C)CC2)c(Cl)cc1NC(=O)c1ccccc1C [Compound 168]
[in] Kindly identify which of I and II has the larger recorded IC50 value. Write down the label attached to your selection.
[out] II

* * *

SYSTEM_UNDER_TEST: CCR8 (Homo sapiens)
TEST_DESCRIPTION: Tango assay (Tango-CCR8-Gal4-CHO-K1 cells, CCL1-stimulated, ONE-Glo luminescence)
CONDITION_SET: Tango Assay IC50, Inhibition of CCR8 Tango cell in vitro
pIC50: −log10 of the molar value.
EXPERIMENTAL_READOUT: pIC50

[[record]]
compound = "Cc1ccccc1C(=O)Nc1ccc(S(=O)(=O)NC(C)C(C)C)c2ccccc12 (stereo not shown)"
observed_result = 6.85


P. Cc1cc(S(=O)(=O)NC(C)C2CC3CCC2CC3)c(C)cc1NC(=O)c1ccccc1C (stereo not shown)
Q. Cc1ccccc1C(=O)Nc1ccc(S(=O)(=O)NC(C)C2CCCN(C(=O)[C@H](C)N)C2)c2ccccc12 (single isomer, unassigned) [Compound 158C]
[in] Kindly identify which of P and Q has the larger recorded pIC50 value. Write down the label attached to your selection.
[out] P
(P: 8.43, Q: 6.34)

* * *

SYSTEM_UNDER_TEST: CCR8 (Homo sapiens, UniProt P51685)
Sequence (P51685 whole entry, the tested form may be a part): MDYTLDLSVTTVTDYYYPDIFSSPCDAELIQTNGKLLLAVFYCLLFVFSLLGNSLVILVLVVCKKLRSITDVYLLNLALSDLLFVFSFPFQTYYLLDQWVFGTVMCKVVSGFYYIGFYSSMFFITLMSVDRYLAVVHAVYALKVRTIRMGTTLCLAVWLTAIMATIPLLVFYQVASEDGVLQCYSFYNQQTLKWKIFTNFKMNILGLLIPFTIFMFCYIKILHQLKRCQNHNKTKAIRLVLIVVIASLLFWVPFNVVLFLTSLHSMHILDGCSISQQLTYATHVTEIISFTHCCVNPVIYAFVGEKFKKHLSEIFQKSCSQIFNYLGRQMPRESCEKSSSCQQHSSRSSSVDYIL
TEST_DESCRIPTION: Tango assay (Tango-CCR8-Gal4-CHO-K1 cells, CCL1-stimulated, ONE-Glo luminescence)
CONDITION_SET: Tango Assay IC50, Inhibition of CCR8 Tango cell in vitro
EXPERIMENTAL_READOUT: IC50 (nM)

[[record]]
compound = "CN1CCN(C(=O)N2CCC(NS(=O)(=O)c3ccc(-c4nc5ccccc5[nH]4)cc3)CC2)CC1"
system_under_test = "CCR8 (Homo sapiens, UniProt P51685)"
experimental_readout = "IC50"
unit_string = "nM"
observed_result = 310


I. Cc1ccccc1C(=O)Nc1ccc(S(=O)(=O)NC(C)c2cccc(NC(=O)OC(C)(C)C)c2)c2ccccc12 (stereo not drawn)
II. Cc1ccccc1C(=O)Nc1ccc(S(=O)(=O)N[C@H](C)C2CCN(C(=O)OC(C)(C)C)CC2)c(Cl)c1C
[in] // compare measured IC50 between I and II ; output the lower one Write down the label attached to your selection.
[out] I

a. Cc1ccccc1C(=O)Nc1ccc(S(=O)(=O)NC(C)CN2CCC(C)CC2)c2ccccc12 (stereo not drawn)
b. Cc1ccccc1C(=O)Nc1ccc(S(=O)(=O)NC2CCOc3ccccc32)c2ccccc12 (stereo not drawn)
[in] // compare measured IC50 between a and b ; output the lower one Write down the label attached to your selection.
[out] b
(b: 26 nM, a: 647 nM)

* * *

SYSTEM_UNDER_TEST: UniProt P51685
TEST_DESCRIPTION: Tango assay (Tango-CCR8-Gal4-CHO-K1 cells, CCL1-stimulated, ONE-Glo luminescence)
CONDITION_SET: Tango Assay IC50, Inhibition of CCR8 Tango cell in vitro
EXPERIMENTAL_READOUT: IC50 (µM)

Some molecules with known IC50 results, for comparison:
[[record]]
molecule = "CCOC(=O)C(C)(C)C(C)NS(=O)(=O)c1ccc(NC(=O)c2ccccc2C)c(C)c1 (stereo not drawn)"
observed_result = 0.685

[[record]]
molecule = "Cc1ccccc1C(=O)Nc1ccc(S(=O)(=O)NC2CCN(C)c3ccccc32)c2ccccc12 (stereo not drawn)"
observed_result = 0.089


1. Cc1cc(S(=O)(=O)NC(C)C2CC3CCC2CC3)ccc1NC(=O)c1ccccc1C (stereo not drawn)
2. Cc1ccccc1C(=O)Nc1ccc(S(=O)(=O)NC(C)c2cccc(N(C)C)c2)c2ccccc12 (stereo not drawn)
[in] Kindly identify which of 1 and 2 has the larger recorded IC50 value. Write down the label attached to your selection.
[out] 2

* * *

SYSTEM_UNDER_TEST: CCR8 (Homo sapiens, UniProt P51685)
TEST_DESCRIPTION: Tango assay (Tango-CCR8-Gal4-CHO-K1 cells, CCL1-stimulated, ONE-Glo luminescence)
CONDITION_SET: Tango Assay IC50, Inhibition of CCR8 Tango cell in vitro
pIC50: −log10 of the molar value.
EXPERIMENTAL_READOUT: pIC50

Some molecules with known pIC50 results, for comparison:
[[record]]
molecule = "Cc1ccccc1C(=O)Nc1ccc(S(=O)(=O)NC(C)C2CCCCC2)c2ccccc12 (stereo not shown)"
observed_result = 8.52

[[record]]
molecule = "Cc1cc(S(=O)(=O)N[C@H](C)C2CCNCC2)c(F)cc1NC(=O)c1ccccc1C"
observed_result = 7.59

[[record]]
molecule = "CC(=O)N1CCCC(C(C)NS(=O)(=O)c2ccc(NC(=O)c3ccccc3C)c3ccccc23)C1 (single isomer, unassigned) [Compound 18B]"
observed_result = 7.00


1. CCCC(=O)N1CCC(NS(=O)(=O)c2ccc(Nc3nccc(C)n3)c3ccccc23)CC1
2. Cc1cc(S(=O)(=O)NCC2CCN(C)CC2)ccc1NC(=O)c1ccccc1C
[in] Kindly identify which of 1 and 2 has the larger recorded pIC50 value. Write down the label attached to your selection.
[out] 2

* * *

SYSTEM_UNDER_TEST: CCR8 (Homo sapiens)
TEST_DESCRIPTION: Tango assay (Tango-CCR8-Gal4-CHO-K1 cells, CCL1-stimulated, ONE-Glo luminescence)
CONDITION_SET: read-out: Tango Assay IC50, Inhibition of CCR8 Tango cell in vitro
EXPERIMENTAL_READOUT: IC50 (nM)

A. Cc1ccccc1C(=O)Nc1c(C)cc(S(=O)(=O)N[C@H](C)C2CCN(C)CC2)cc1Cl
B. COC1CCC([C@@H](C)NS(=O)(=O)c2ccc(NC(=O)c3ccccc3C)c(C)c2)CC1 (single isomer, unassigned) [Compound 293A]
[in] // compare measured IC50 between A and B ; output the lower one Write down the label attached to your selection.
[out] A
(A: 1 nM, B: 24 nM)

* * *

SYSTEM_UNDER_TEST: CCR8 (Homo sapiens, UniProt P51685)
TEST_DESCRIPTION: Tango assay (Tango-CCR8-Gal4-CHO-K1 cells, CCL1-stimulated, ONE-Glo luminescence)
CONDITION_SET: Tango Assay IC50, Inhibition of CCR8 Tango cell in vitro
Counter-ions that a name gives are not always drawn.
EXPERIMENTAL_READOUT: IC50 (nM)

[[record]]
compound = "Cc1cc(S(=O)(=O)NC(C)C23CCN(CC2)CC3)ccc1NC(=O)c1ccccc1C (stereo not drawn)"
experimental_readout = "IC50"
observed_result = 256

[[record]]
compound = "Cc1ccccc1C(=O)Nc1ccc(S(=O)(=O)N[C@H](C)C2CCN(C(=O)OC(C)(C)C)CC2)cc1C(F)(F)F"
experimental_readout = "IC50"
observed_result = 673

[[record]]
compound = "Cc1ccccc1C(=O)Nc1ccc(S(=O)(=O)N[C@H](C)C2CCN(C)CC2)c(F)c1Cl"
experimental_readout = "IC50"
observed_result = 11


A. CC(=O)N1CCC(NS(=O)(=O)c2ccc(NC(=O)c3ccccc3C)c3ccccc23)c2ccccc21 (stereo not drawn)
B. Cc1ccccc1C(=O)Nc1ccc(S(=O)(=O)NC(C)C2CCN(C(=O)OC(C)(C)C)CC2)c2ccccc12 (stereo not drawn)
[in] // compare measured IC50 between A and B ; output the lower one Write down the label attached to your selection.
[out] B

P. Cc1ccccc1C(=O)Nc1ccc(S(=O)(=O)NC(C)C2CCCN(C(=O)CN)C2)c2ccccc12 (single isomer, unassigned) [Compound 156A]
Q. Cc1cc(S(=O)(=O)N[C@H](C)C2CCNCC2)ccc1NC(=O)Nc1ccccc1 [Compound 236A, hydrochloride]
R. Cc1cc(S(=O)(=O)N[C@H](C)C2CCN(C)CC2)ccc1NC(=O)c1cccc2c1CCC2
S. Cc1cc(S(=O)(=O)N[C@H](C)C2CCN(C)CC2)ccc1NC(c1ccccc1)C(F)(F)F (stereo partly drawn)
[in] Arrange these 4 compounds in increasing order of IC50. Answer format: the labels, ordered as requested.
[out] R, P, Q, S
(R: 2 nM, P: 85 nM, Q: 158 nM, S: 2300 nM)

A. COCCN1CCC([C@@H](C)NS(=O)(=O)c2ccc(NC(=O)c3ccccc3C)c(C)c2)CC1
B. Cc1ccccc1C(=O)Nc1ccc(S(=N)(=O)NC(C)C2CCCCC2)c2ccccc12 (stereo not drawn)
[in] // compare measured IC50 between A and B ; output the lower one Write down the label attached to your selection.
[out] B
(B: 3.4 nM, A: 60 nM)
